System: MCF7; note: test concentration or dose not given here
Experiment: Antiproliferative activity against human MCF7 cells by MTS assay
Assay type: functional
// reported inhibition (INH) for each item listed
PROPERTY_LABEL: inhibition (INH)

>  <MOLECULE>
CCOC(=O)Nc1cc(Cl)c(Nc2ncnc3cc(OC)c(OC)cc23)cc1Cl.Cl

>  <ASSAY_VALUE>
6%

$$$$
>  <MOLECULE>
COC(=O)Nc1cc(Nc2ncnc3cc(OC)c(OC)cc23)ccc1Cl.Cl

>  <ASSAY_VALUE>
0%

$$$$
>  <MOLECULE>
COc1cc2ncnc(Nc3ccc(NC(C)=O)c(C)c3)c2cc1OC.Cl

>  <ASSAY_VALUE>
0%

$$$$
>  <MOLECULE>
CCCCNC(=O)Nc1cc(Cl)c(Nc2ncnc3cc(OC)c(OC)cc23)cc1Cl.Cl

>  <ASSAY_VALUE>
0%

$$$$
>  <MOLECULE>
CCNC(=O)Nc1cc(Cl)c(Nc2ncnc3cc(OC)c(OC)cc23)cc1Cl.Cl

>  <ASSAY_VALUE>
21%

$$$$
>  <MOLECULE>
CCC(=O)Nc1ccc(Nc2ncnc3cc(OC)c(OC)cc23)cc1C.Cl

>  <ASSAY_VALUE>
28%

$$$$
>  <MOLECULE>
COc1cc2/c(=N/c3ccc(Br)cc3F)nc[nH]c2cc1OCC1CCN(C)CC1 [VANDETANIB]

>  <ASSAY_VALUE>
26%

$$$$
